Biological target: κ opioid receptors (Rattus norvegicus, UniProt P34975)
Construct: expressed in transfected cells
Sequence (P34975 whole entry): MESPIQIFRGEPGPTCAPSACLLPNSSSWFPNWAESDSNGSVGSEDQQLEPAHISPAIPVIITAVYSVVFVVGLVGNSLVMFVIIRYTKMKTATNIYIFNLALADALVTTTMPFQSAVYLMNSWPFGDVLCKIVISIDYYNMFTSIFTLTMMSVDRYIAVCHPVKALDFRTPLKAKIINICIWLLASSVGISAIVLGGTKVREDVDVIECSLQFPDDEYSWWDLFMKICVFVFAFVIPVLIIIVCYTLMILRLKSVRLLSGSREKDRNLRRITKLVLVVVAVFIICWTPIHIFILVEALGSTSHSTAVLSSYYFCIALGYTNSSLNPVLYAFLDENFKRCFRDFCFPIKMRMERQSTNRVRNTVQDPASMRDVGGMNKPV
Assay: Adenylyl cyclase assay (efficacy at κ opioid receptors)
Assay type: cell-based
Settings: 10 μM peptide; relative to dynorphin A-(1-13) amide (100%)
Where a SMILES comes first, the peptide text is derived from it.
ENDPOINT_NAME: Cyclase screen (% control) (%)
Numeric answer only, unit % assumed.

Enquiry: Provide only the value of recorded Cyclase screen (% control) for O=C1N[C@@H](Cc2ccccc2)C(=O)N2CCC[C@@H]2C(=O)N[C@@H](Cc2ccccc2)C(=O)N[C@H]1Cc1c[nH]c2ccccc12 [JVA-2801, cyclo[Trp-Phe-D-Pro-Phe]] (HELM PEPTIDE1{F.W.F.[dP]}$PEPTIDE1,PEPTIDE1,1:R1-4:R2$$$V2.0)
Return: 119

Enquiry: Return reported Cyclase screen (% control). Input compound: C[C@@H]1NC(=O)[C@@H](Cc2c[nH]c3ccccc23)NC(=O)[C@H](Cc2ccccc2)NC(=O)[C@H]2CCCN2C1=O [JVA-3003, cyclo[D-Trp-Ala-D-Pro-Phe]] (HELM PEPTIDE1{A.[dP].F.[dW]}$PEPTIDE1,PEPTIDE1,1:R1-4:R2$$$V2.0)
Return: 75

Enquiry: Return Cyclase screen (% control) for the following compound: C[C@@H]1NC(=O)[C@H](Cc2c[nH]c3ccccc23)NC(=O)[C@H](Cc2ccccc2)NC(=O)[C@H]2CCCN2C1=O [JVA-2803, cyclo[Trp-Ala-D-Pro-Phe]] (HELM PEPTIDE1{A.[dP].F.W}$PEPTIDE1,PEPTIDE1,1:R1-4:R2$$$V2.0)
Return: 122

Continuing:
Enquiry: Please give the documented Cyclase screen (% control) of O=C1N[C@H](Cc2c[nH]c3ccccc23)C(=O)N[C@@H](Cc2ccccc2)C(=O)N2CCC[C@@H]2C(=O)N[C@H]1Cc1ccccc1 [JVA-2802, cyclo[D-Trp-Phe-D-Pro-Phe]] (HELM PEPTIDE1{F.[dP].F.[dW]}$PEPTIDE1,PEPTIDE1,1:R1-4:R2$$$V2.0)
Return: 127
